Listing of entries alongside the reported logP.
Please state the value as a number alone, without comment.

# count of solved cases: 3
FCC(F)Cl (stereo unspecified) :: 1.62
FCC(F)(F)Cl :: 1.45
FC(F)(F)F :: 1.36

Looking up `CC(F)(Cl)Cl` , I see its logP listed as 1.95

Looking up FC(Cl)C(F)(F)F (stereo unspecified) , I see its logP listed as 1.75

Looking up `FC(C(F)(F)F)C(F)(F)F` , I see its logP listed as 2.22

---

Listing of entries alongside the reported logP.
Please state the value as a number alone, without comment.

# count of solved cases: 4
FC(F)=C(F)C(F)(F)F :: 1.98
FCC(F)(F)F :: 1.06
FC(F)=CCl :: 1.52
FC(F)C(F)(F)F :: 1.45

Looking up `FC(Cl)(Cl)Cl` , I see its logP listed as 2.26
